- EXPERIMENTAL SYSTEM: H. pylori urease (Helicobacter pylori)
- Construct: endogenous in cells; host or cells: H. pylori ATCC 43504; sonicated, supernatant desalted on Sephadex G-25 (crude extract)
- TEST SUMMARY: Urease inhibition, extracted H. pylori urease (indophenol method)
- Format: biochemical
- STUDY CONDITIONS: IC50 Extracted urease, extracted H. pylori urease
Mark each entry Fulfilled if its IC50 sits below 50 µM, and Not fulfilled for all others.

- MOLECULE: "NC(=S)NC(=O)Cc1cccc(Br)c1 [b2]"
  GROUP: "Not fulfilled"
- MOLECULE: "NC(=S)NC(=O)Cc1ccc([N+](=O)[O-])cc1 [b22]"
  GROUP: "Not fulfilled"
- MOLECULE: "NC(=S)NC(=O)Cc1ccc(Cl)cc1 [b19]"
  GROUP: "Fulfilled"

*Q* hey, is IC50 for COc1ccccc1CC(=O)NC(N)=S [b17] lower than 50 µM or not?
*A* Not fulfilled

*Q* // query: NC(=S)NC(=O)Cc1cccc(Cl)c1 [b7]
*A* Not fulfilled

====

Reported pIC50 values follow for various molecules
- EXPERIMENTAL SYSTEM: H. pylori urease (Helicobacter pylori)
- Construct: endogenous in cells; host or cells: H. pylori ATCC 43504; sonicated, supernatant desalted on Sephadex G-25 (crude extract)
- TEST SUMMARY: Urease inhibition, extracted H. pylori urease (indophenol method)
- Format: biochemical
- STUDY CONDITIONS: IC50 Extracted urease, extracted H. pylori urease
Lab note: report pIC50 as minus log10 of the concentration in molar units, number only.

Reference set, count: 5
- SMILES ENTRY: "NC(=S)NC(=O)Cc1cccc(F)c1"
  EXPERIMENTAL SYSTEM: "H. pylori urease (Helicobacter pylori)"
  pIC50: 4.30
- SMILES ENTRY: "NC(=S)NC(=O)Cc1ccc(Br)cc1"
  EXPERIMENTAL SYSTEM: "H. pylori urease (Helicobacter pylori)"
  pIC50: 4.64
- SMILES ENTRY: "Cc1ccc(CC(=O)NC(N)=S)cc1"
  EXPERIMENTAL SYSTEM: "H. pylori urease (Helicobacter pylori)"
  pIC50: 5.28
- SMILES ENTRY: "NC(=S)NC(=O)Cc1cccc(C(F)(F)F)c1"
  EXPERIMENTAL SYSTEM: "H. pylori urease (Helicobacter pylori)"
  pIC50: 3.87
- SMILES ENTRY: "NC(=S)NC(=O)Cc1ccc2c(c1)OCO2"
  EXPERIMENTAL SYSTEM: "H. pylori urease (Helicobacter pylori)"
  pIC50: 4.01

*Q* So what does the record say about pIC50 for `Cc1ccccc1CC(=O)NC(N)=S` ?
*A* 4.34

====

- EXPERIMENTAL SYSTEM: H. pylori urease (Helicobacter pylori, UniProt P69996)
- Construct: endogenous in cells; host or cells: H. pylori ATCC 43504; sonicated, supernatant desalted on Sephadex G-25 (crude extract)
- Sequence (P14916 whole entry): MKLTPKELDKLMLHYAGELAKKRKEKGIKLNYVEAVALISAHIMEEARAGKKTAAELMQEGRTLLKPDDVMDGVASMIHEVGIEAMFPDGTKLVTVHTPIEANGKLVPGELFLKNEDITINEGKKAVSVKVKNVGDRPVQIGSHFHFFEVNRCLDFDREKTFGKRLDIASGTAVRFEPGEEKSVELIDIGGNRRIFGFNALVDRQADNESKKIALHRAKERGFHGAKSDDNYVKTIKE
- Sequence (P69996 whole entry): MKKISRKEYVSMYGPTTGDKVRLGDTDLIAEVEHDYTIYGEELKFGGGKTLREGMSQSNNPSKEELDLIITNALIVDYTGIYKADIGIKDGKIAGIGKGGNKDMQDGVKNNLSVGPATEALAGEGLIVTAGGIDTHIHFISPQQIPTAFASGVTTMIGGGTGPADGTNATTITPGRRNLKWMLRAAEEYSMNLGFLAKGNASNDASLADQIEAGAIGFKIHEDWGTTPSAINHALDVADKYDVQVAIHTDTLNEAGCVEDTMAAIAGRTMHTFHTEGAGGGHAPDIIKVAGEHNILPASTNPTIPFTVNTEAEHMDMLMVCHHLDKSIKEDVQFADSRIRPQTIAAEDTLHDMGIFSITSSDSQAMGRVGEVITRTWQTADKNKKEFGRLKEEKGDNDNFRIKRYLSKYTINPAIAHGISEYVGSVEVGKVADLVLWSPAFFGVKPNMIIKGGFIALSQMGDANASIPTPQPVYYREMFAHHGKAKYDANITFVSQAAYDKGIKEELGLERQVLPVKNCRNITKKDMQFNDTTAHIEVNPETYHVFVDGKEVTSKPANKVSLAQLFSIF
- TEST SUMMARY: Urease inhibition, extracted H. pylori urease (indophenol method)
- Assay type: biochemical
- STUDY CONDITIONS: IC50 Extracted urease, extracted H. pylori urease
// classify: if (IC50 < 60 µM) true (1) else false (0)

Answered examples (4):
- COMPOUND: "NC(=S)NC(=O)Cc1ccc(Cl)c(Cl)c1 [b3]"
  EXPERIMENTAL SYSTEM: "H. pylori urease (Helicobacter pylori, UniProt P69996)"
  GROUP: "false (0)"
- COMPOUND: "NC(=S)NC(=O)Cc1ccc(O)c(O)c1 [b29]"
  EXPERIMENTAL SYSTEM: "H. pylori urease (Helicobacter pylori, UniProt P69996)"
  GROUP: "true (1)"
- COMPOUND: "NC(=S)NC(=O)Cc1cccc(O)c1 [b4]"
  EXPERIMENTAL SYSTEM: "H. pylori urease (Helicobacter pylori, UniProt P69996)"
  GROUP: "true (1)"
- COMPOUND: "NC(=S)NC(=O)Cc1ccc(O)cc1 [b8]"
  EXPERIMENTAL SYSTEM: "H. pylori urease (Helicobacter pylori, UniProt P69996)"
  GROUP: "true (1)"

*Q* Consider NC(=S)NC(=O)Cc1ccccc1[N+](=O)[O-] [b20] . Does its IC50 lie strictly below 60 µM?
*A* false (0)

The measured values listed here are drawn from paper PMC6968641.
